# MEASURED_TARGET: 5α-reductase
# EXPERIMENT_NOTES: 5α-reductase inhibitory activity in vitro
# ASSAY_CONDITIONS: male rats' prostate enzyme, [4-C14]-testosterone, NADPH, 60 mins at 37° C., pH 7.4
ENDPOINT: IC50 (nM)

[I] CCCc1ccc(COc2ccc(C(=O)Nc3ccccc3SCCCC(=O)O)c(C)c2C)cc1
[II] CCCc1ccc(C(Oc2ccc(C(=O)Nc3ccccc3OCCCC(=O)O)c(C)c2C)c2ccc(CCC)cc2)cc1
stdin: In terms of reported IC50, does I or II have the smaller number? API: response body contains the label of the selected item.
stdout: II
